# Tested on: blackgrass
# Assay Overview: Test C postemergence herbicide test
# Format: in vivo, Alopecurus myosuroides
# Test Conditions: postemergence; 62 g ai/ha; scale 0 to 100
Measurement Kind: Plant response rating, Blackgrass

[
  {
    "Query Smiles": "CCn1nc(C(C)(C)C)cc1C(=O)Nc1cccc(OC(F)(F)C(F)F)c1",
    "Measurement Kind": "Plant response rating, Blackgrass",
    "Assay Value": 30
  },
  {
    "Query Smiles": "CCn1nc(C(C)(C)C)cc1C(=O)Nc1cccc(OC(F)(F)F)c1",
    "Measurement Kind": "Plant response rating, Blackgrass",
    "Assay Value": 35
  },
  {
    "Query Smiles": "CCn1nc(C2(C)CC2)cc1C(=O)Nc1cccc(C(=O)N2CC=CC2)c1",
    "Measurement Kind": "Plant response rating, Blackgrass",
    "Assay Value": 60
  },
  {
    "Query Smiles": "C=CCOc1cccc(NC(=O)c2cc(C(C)(C)C)nn2CC)c1",
    "Measurement Kind": "Plant response rating, Blackgrass",
    "Assay Value": 45
  }
]
